Cited source: ChEMBL document CHEMBL1158427

Target: Signal transducer and activator of transcription 5B (Homo sapiens) (UniProt P51692)
Sequence (P51692 whole entry, the tested form may be a part): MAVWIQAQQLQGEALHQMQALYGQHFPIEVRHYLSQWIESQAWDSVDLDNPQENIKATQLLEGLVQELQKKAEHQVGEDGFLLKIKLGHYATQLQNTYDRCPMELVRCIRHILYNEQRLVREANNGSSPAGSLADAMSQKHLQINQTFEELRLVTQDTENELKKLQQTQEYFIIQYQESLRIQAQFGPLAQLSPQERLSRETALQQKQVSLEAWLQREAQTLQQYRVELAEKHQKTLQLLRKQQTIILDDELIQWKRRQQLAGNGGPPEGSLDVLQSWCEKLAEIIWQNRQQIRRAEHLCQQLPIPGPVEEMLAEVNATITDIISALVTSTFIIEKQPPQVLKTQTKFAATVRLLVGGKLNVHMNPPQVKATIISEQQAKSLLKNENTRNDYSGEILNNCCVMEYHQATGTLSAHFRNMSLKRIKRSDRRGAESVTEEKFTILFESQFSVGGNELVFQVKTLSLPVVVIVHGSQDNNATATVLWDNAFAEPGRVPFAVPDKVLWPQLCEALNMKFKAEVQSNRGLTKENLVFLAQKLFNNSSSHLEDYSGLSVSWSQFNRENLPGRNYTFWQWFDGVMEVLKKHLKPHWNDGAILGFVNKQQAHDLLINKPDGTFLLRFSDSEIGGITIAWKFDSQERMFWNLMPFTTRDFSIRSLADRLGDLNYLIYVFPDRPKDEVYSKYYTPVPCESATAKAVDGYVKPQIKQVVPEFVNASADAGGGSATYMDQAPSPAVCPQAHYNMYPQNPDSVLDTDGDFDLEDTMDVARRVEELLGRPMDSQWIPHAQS
Assay: Inhibition of STAT5b SH2 domain at 200 uM
Readout: inhibition (%)
Write down the numeric answer in % and omit the unit.

Prompt line: Look at this compound and give its reported inhibition. `O=C(/C=C/c1ccc(O)c(O)c1)O[C@@H]1C[C@](O)(C(=O)O)C[C@@H](O)[C@H]1O`
Response line: -1

Prompt line: # repeat for `O=C(/C=C/c1ccc(O)c(O)c1)O[C@@H](C(=O)O)[C@@H](O)C(=O)O`
Response line: 31.2

Prompt line: Another compound: `O=C(/C=C/c1ccc(O)c(O)c1)O[C@@H](C(=O)O)[C@@H](OC(=O)/C=C/c1ccc(O)c(O)c1)C(=O)O`
Response line: 11

Prompt line: Also, `O=C(/C=C/c1ccc(O)c(O)c1/C=C/c1ccc(O)c(O)c1)O[C@H](Cc1ccc(O)c(O)c1)C(=O)O` please.
Response line: 30.2

Prompt line: Request: `O=C(/C=C/c1ccc(O)c(O)c1)O[C@@H]1C[C@@](OC(=O)/C=C/c2ccc(O)c(O)c2)(C(=O)O)C[C@@H](O)[C@@H]1O`
Response line: -1

Prompt line: How about this compound: `O=C(/C=C/c1ccc(O)c(O)c1)O[C@H](Cc1ccc(O)c(O)c1)C(=O)O`
Response line: 32.6
